Assay: Single-dose pharmacokinetics in dogs (plasma, UHPLC/MS/MS)
Type: in vivo, Beagle dogs
Conditions: female, Beagle, dog, plasma, po, 49.6 mg/kg
Readout Name: Tmax

[ask] Param item = C[C@@H]1O[C@@H](O[C@H]2[C@H](Oc3cc(O)c4c(c3)O[C@H](c3ccc(O)cc3)CC4=O)O[C@H](CO)[C@@H](O)[C@@H]2O)[C@H](O)[C@H](O)[C@H]1O ; retrieve measured Tmax.
[reply] 1.17 h

====

Experiment: Single-dose pharmacokinetics in dogs (plasma, UHPLC/MS/MS)
Format: in vivo, Beagle dogs
Settings: male, Beagle, dog, plasma, po, 49.6 mg/kg
Readout Name: half-life (h)
Number only, in h; omit the unit.

[ask] Param item = C[C@@H]1O[C@@H](O[C@H]2[C@H](Oc3cc(O)c4c(c3)O[C@H](c3ccc(O)cc3)CC4=O)O[C@H](CO)[C@@H](O)[C@@H]2O)[C@H](O)[C@H](O)[C@H]1O ; retrieve measured half-life.
[reply] 1.5

====

Test: Single-dose pharmacokinetics in dogs (plasma, UHPLC/MS/MS)
Assay type: in vivo, Beagle dogs
Settings: both sexes, Beagle, dog, plasma, po, 12.4 mg/kg
Readout Name: half-life (h)
Number only, in h; omit the unit.

[ask] Param item = C[C@@H]1O[C@@H](O[C@H]2[C@H](Oc3cc(O)c4c(c3)O[C@H](c3ccc(O)cc3)CC4=O)O[C@H](CO)[C@@H](O)[C@@H]2O)[C@H](O)[C@H](O)[C@H]1O [naringin, Naringin] ; retrieve measured half-life.
[reply] 1.31

====

Assay: Single-dose pharmacokinetics in rats (plasma, UHPLC/MS/MS)
Assay type: in vivo, Sprague Dawley rats
Settings: both sexes, Sprague Dawley, rat, plasma, po, 10.5 mg/kg
Readout Name: half-life

[ask] Param item = C[C@@H]1O[C@@H](O[C@H]2[C@H](Oc3cc(O)c4c(c3)O[C@H](c3ccc(O)cc3)CC4=O)O[C@H](CO)[C@@H](O)[C@@H]2O)[C@H](O)[C@H](O)[C@H]1O ; retrieve measured half-life.
[reply] 19.7 min

====

Reported half-life values for the following molecules.
Test: Single-dose pharmacokinetics in rats (plasma, UHPLC/MS/MS)
Assay type: in vivo, Sprague Dawley rats
Settings: both sexes, Sprague Dawley, rat, plasma, iv, 42 mg/kg
Number only, in min; omit the unit.

• O=C1C[C@@H](c2ccc(O)cc2)Oc2cc(O)cc(O)c21 [naringenin, Naringenin] = 147

Now for a further molecule.
[ask] Param item = C[C@@H]1O[C@@H](O[C@H]2[C@H](Oc3cc(O)c4c(c3)O[C@H](c3ccc(O)cc3)CC4=O)O[C@H](CO)[C@@H](O)[C@@H]2O)[C@H](O)[C@H](O)[C@H]1O [naringin, Naringin] ; retrieve measured half-life.
[reply] 97.2

====

Test: Single-dose pharmacokinetics in rats (plasma, UHPLC/MS/MS)
Assay type: in vivo, Sprague Dawley rats
Details: female, Sprague Dawley, rat, plasma, po, 168 mg/kg
Readout Name: half-life (min)
Number only, in min; omit the unit.

[ask] Param item = C[C@@H]1O[C@@H](O[C@H]2[C@H](Oc3cc(O)c4c(c3)O[C@H](c3ccc(O)cc3)CC4=O)O[C@H](CO)[C@@H](O)[C@@H]2O)[C@H](O)[C@H](O)[C@H]1O ; retrieve measured half-life.
[reply] 51

====

Assay: Single-dose pharmacokinetics in rats (plasma, UHPLC/MS/MS)
Type: in vivo, Sprague Dawley rats
Conditions: both sexes, Sprague Dawley, rat, plasma, po, 21 mg/kg
Readout Name: AUC(0-inf) (ng·h/mL)
Number only, in ng·h/mL; omit the unit.

[ask] Param item = C[C@@H]1O[C@@H](O[C@H]2[C@H](Oc3cc(O)c4c(c3)O[C@H](c3ccc(O)cc3)CC4=O)O[C@H](CO)[C@@H](O)[C@@H]2O)[C@H](O)[C@H](O)[C@H]1O ; retrieve measured AUC(0-inf).
[reply] 38.4

====

Assay: Single-dose pharmacokinetics in dogs (plasma, UHPLC/MS/MS)
Assay type: in vivo, Beagle dogs
Settings: male, Beagle, dog, plasma, po, 12.4 mg/kg
Readout Name: AUC(0-inf) (ng·h/mL)
Number only, in ng·h/mL; omit the unit.

[ask] Param item = C[C@@H]1O[C@@H](O[C@H]2[C@H](Oc3cc(O)c4c(c3)O[C@H](c3ccc(O)cc3)CC4=O)O[C@H](CO)[C@@H](O)[C@@H]2O)[C@H](O)[C@H](O)[C@H]1O [naringin, Naringin] ; retrieve measured AUC(0-inf).
[reply] 137

====

Assay: Single-dose pharmacokinetics in rats (plasma, UHPLC/MS/MS)
Type: in vivo, Sprague Dawley rats
Conditions: male, Sprague Dawley, rat, plasma, po, 168 mg/kg
Text: Sixty healthy adult Sprague Dawley rats (180-220 g, half male and female) were purchased from the Guangdong Medical Laboratory Animal Center (Guangzhou, Guangdong, China). Thirty Beagle dogs (10-14 kg, half male and female) were purchased from the […] […] The compounds were detected by multiple reaction monitoring in the negative ion electrospray mode. […] All pharmacokinetic and excretion parameters were expressed as mean ± standard deviation (SD). […]
Readout Name: Tmax (h)
Number only, in h; omit the unit.

[ask] Param item = C[C@@H]1O[C@@H](O[C@H]2[C@H](Oc3cc(O)c4c(c3)O[C@H](c3ccc(O)cc3)CC4=O)O[C@H](CO)[C@@H](O)[C@@H]2O)[C@H](O)[C@H](O)[C@H]1O [naringin, Naringin] ; retrieve measured Tmax.
[reply] 3.75

====

Test: Single-dose pharmacokinetics in rats (plasma, UHPLC/MS/MS)
Assay type: in vivo, Sprague Dawley rats
Conditions: female, Sprague Dawley, rat, plasma, iv, 42 mg/kg; read-out: Cmax
Reported Cmax values for the following compounds.
Number only, in ng/mL; omit the unit.

- O=C1C[C@@H](c2ccc(O)cc2)Oc2cc(O)cc(O)c21: 2430

Now for a further compound.
[ask] Param item = C[C@@H]1O[C@@H](O[C@H]2[C@H](Oc3cc(O)c4c(c3)O[C@H](c3ccc(O)cc3)CC4=O)O[C@H](CO)[C@@H](O)[C@@H]2O)[C@H](O)[C@H](O)[C@H]1O ; retrieve measured Cmax.
[reply] 70200

====

Assay: Single-dose pharmacokinetics in dogs (plasma, UHPLC/MS/MS)
Assay type: in vivo, Beagle dogs
Settings: both sexes, Beagle, dog, plasma, po, 3.1 mg/kg
Readout Name: AUC(0-t) (ng·h/mL)
Number only, in ng·h/mL; omit the unit.

[ask] Param item = C[C@@H]1O[C@@H](O[C@H]2[C@H](Oc3cc(O)c4c(c3)O[C@H](c3ccc(O)cc3)CC4=O)O[C@H](CO)[C@@H](O)[C@@H]2O)[C@H](O)[C@H](O)[C@H]1O ; retrieve measured AUC(0-t).
[reply] 108

====

Assay: Single-dose pharmacokinetics in rats (plasma, UHPLC/MS/MS)
Type: in vivo, Sprague Dawley rats
Conditions: both sexes, Sprague Dawley, rat, plasma, po, 42 mg/kg; read-out: MRT0-∞
Description: Sixty healthy adult Sprague Dawley rats (180-220 g, half male and female) were purchased from the Guangdong Medical Laboratory Animal Center (Guangzhou, Guangdong, China). Thirty Beagle dogs (10-14 kg, half male and female) were purchased from the […] […] The compounds were detected by multiple reaction monitoring in the negative ion electrospray mode. […] All pharmacokinetic and excretion parameters were expressed as mean ± standard deviation (SD). […]
Readout Name: MRT inf
Number plus unit, in that order.

[ask] Param item = C[C@@H]1O[C@@H](O[C@H]2[C@H](Oc3cc(O)c4c(c3)O[C@H](c3ccc(O)cc3)CC4=O)O[C@H](CO)[C@@H](O)[C@@H]2O)[C@H](O)[C@H](O)[C@H]1O [naringin, Naringin] ; retrieve measured MRT inf.
[reply] 1.24 h

====

Assay: Single ascending dose and food-effect pharmacokinetics of naringin tablets in healthy humans
Assay type: in vivo, human
Details: both sexes, human, plasma, po, 320 mg, naringin 320 mg p.o. single dose
Readout Name: AUC(0-inf) (ng·h/mL)
Number only, in ng·h/mL; omit the unit.

[ask] Param item = C[C@@H]1O[C@@H](O[C@H]2[C@H](Oc3cc(O)c4c(c3)O[C@H](c3ccc(O)cc3)CC4=O)O[C@H](CO)[C@@H](O)[C@@H]2O)[C@H](O)[C@H](O)[C@H]1O [naringin, Naringin] ; retrieve measured AUC(0-inf).
[reply] 39.8

====

Experiment: Single-dose pharmacokinetics in rats (plasma, UHPLC/MS/MS)
Type: in vivo, Sprague Dawley rats
Conditions: both sexes, Sprague Dawley, rat, plasma, po, 168 mg/kg; read-out: MRT0-t
Readout Name: MRT last (h)
Number only, in h; omit the unit.

[ask] Param item = C[C@@H]1O[C@@H](O[C@H]2[C@H](Oc3cc(O)c4c(c3)O[C@H](c3ccc(O)cc3)CC4=O)O[C@H](CO)[C@@H](O)[C@@H]2O)[C@H](O)[C@H](O)[C@H]1O [naringin, Naringin] ; retrieve measured MRT last.
[reply] 2.01
